# ASSAY_PROCEDURE: Phase I study Part A, single IV dose, plasma pharmacokinetics
# Format: in vivo, healthy male and female subjects
# EXPERIMENTAL_SETUP: both sexes, human, plasma, iv, 600 mg, Treatment 600 mg Ceftaroline fosamil; Geo mean; read-out: AUC0-inf
METRIC: AUC(0-inf) (ng·h/mL)

A = CCO/N=C(\C(=O)N[C@@H]1C(=O)N2C(C(=O)[O-])=C(Sc3nc(-c4cc[n+](C)cc4)cs3)CS[C@H]12)c1nsc(N)n1
B = CCO/N=C(\C(=O)N[C@@H]1C(=O)N2C(C(=O)[O-])=C(Sc3nc(-c4cc[n+](C)cc4)cs3)CS[C@H]12)c1nsc(NP(=O)(O)O)n1
input: I need your help: which of the pair A , B has higher AUC(0-inf)? Choose, then provide that item's label.
output: A
